Let's look at some binders and their measured Ratio (-BP/+BP), DF-1,000,000.
- system_under_test: T1, interleukin 18 binding protein (IL-18BP) (UniProt O95998 31-194)
- T1 sequence (looked up): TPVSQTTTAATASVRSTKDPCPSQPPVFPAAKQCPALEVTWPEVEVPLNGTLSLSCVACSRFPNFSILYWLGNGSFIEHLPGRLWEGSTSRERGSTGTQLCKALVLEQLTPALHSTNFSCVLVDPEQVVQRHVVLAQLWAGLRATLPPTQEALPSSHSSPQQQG
- assay_remarks: cell-based or functional assay
// return just the number, without any unit appended

IL-18 variant K53H, S55M, Q56H (ligand) YFGKLESKLSVIRNLNDQVLFIDQGNRPLFEDMTDSDMRDNAPRTIFIISMYHDMHPRGMAVTISVKSEKISTLSSENKIISFKEMNPPDNIKDTKSDIIFFQRSVPGHDNKMQFESSSYEGYFLASEKERDLFKLILKKEDELGDRSIMFTVQNED | 0.92

[in] Name the reported Ratio (-BP/+BP), DF-1,000,000 value associated with the binder IL-18 variant S7Y, K53H, S55M (ligand) YFGKLEYKLSVIRNLNDQVLFIDQGNRPLFEDMTDSDMRDNAPRTIFIISMYHDMQPRGMAVTISVKSEKISTLSSENKIISFKEMNPPDNIKDTKSDIIFFQRSVPGHDNKMQFESSSYEGYFLASEKERDLFKLILKKEDELGDRSIMFTVQNED
[out] 0.98

[in] Reported Ratio (-BP/+BP), DF-1,000,000 for IL-18 variant K53L, S55E (ligand) YFGKLESKLSVIRNLNDQVLFIDQGNRPLFEDMTDSDMRDNAPRTIFIISMYLDEQPRGMAVTISVKSEKISTLSSENKIISFKEMNPPDNIKDTKSDIIFFQRSVPGHDNKMQFESSSYEGYFLASEKERDLFKLILKKEDELGDRSIMFTVQNED : what is it?
[out] 1.01

[in] Query (binder): IL-18 variant T34M, S36T, D37E, D40T, N41M, K53T, S55W (ligand) YFGKLESKLSVIRNLNDQVLFIDQGNRPLFEDMMDTEMRTMAPRTIFIISMYTDWQPRGMAVTISVKSEKISTLSSENKIISFKEMNPPDNIKDTKSDIIFFQRSVPGHDNKMQFESSSYEGYFLASEKERDLFKLILKKEDELGDRSIMFTVQNED ; field requested: Ratio (-BP/+BP), DF-1,000,000
[out] 1.63
